Source listed as patent US20080269279A1.

// % GABA Example lookup, one value per entry
System: human GABA α1β3β2 receptors
MEASUREMENT NOTES: GABAa, 3H-muscimol binding assay
STATED CONDITIONS: activity at 10 μM as percentage of activity of control compound P18 at 10 μM (increase of 3H-muscimol binding)
Number in %, nothing else.

Reference set, count: 3
| SMILES | OBSERVATION TYPE | RESULT UNIT | RESULT |
| --- | --- | --- | --- |
| CC(=O)n1cc(-c2ccc(-c3nc4oc(C(=O)C(C)(C)O)c(N)c4cc3-c3ccc(Cl)cc3)c(Cl)c2)cn1 | % GABA Example | % | 19 |
| CCC(=O)c1oc2nc(-c3ccc(-c4cc[nH]n4)cc3Cl)c(-c3ccc(Cl)cc3)cc2c1C | % GABA Example | % | 28 |
| CC(C)C(=O)c1oc2nc(-c3ccc(-c4cc[nH]n4)cc3Cl)c(-c3ccc(Cl)cc3)cc2c1N | % GABA Example | % | 18 |

Would you kindly look at the next entry?
For the compound shown here, CC(C)(C)C(=O)c1oc2nc(-c3ccc(-c4cn[nH]c4)cc3Cl)c(-c3ccc(Cl)cc3)cc2c1N , give the reported % GABA Example.
17

---

System: human GABA α1β3β2 receptors
MEASUREMENT NOTES: GABAa, 3H-muscimol binding assay
STATED CONDITIONS: activity at 10 μM as percentage of activity of control compound P18 at 10 μM (increase of 3H-muscimol binding)
Hi! Just check whether % GABA Example is below 20%. Below gives y, equal or above gives n.

Worked examples follow.
| SMILES | QUALITATIVE LABEL |
| --- | --- |
| Cc1c(C(=O)C(C)(C)O)oc2nc(-c3ccc(-c4cn[nH]c4)cc3Cl)c(-c3ccc(Cl)cc3)cc12 | n |
| Cc1n[nH]cc1-c1ccc(-c2nc3oc(C(=O)C(C)(C)O)c(C)c3cc2-c2ccc(Cl)cc2)c(Cl)c1 | n |
| CCC(=O)c1oc2nc(-c3ccc(-c4cn[nH]c4)cc3Cl)c(-c3ccc(Cl)cc3)cc2c1NC(=O)C(C)(C)O | y |
| Cc1c(C(=O)C(C)(C)C)oc2nc(-c3ccc(-c4cn[nH]c4)cc3Cl)c(-c3ccc(Cl)cc3)cc12 | y |
| CC(C)(C)C(=O)c1oc2nc(-c3ccc(-c4cc[nH]n4)cc3Cl)c(-c3ccc(Cl)cc3)cc2c1NC(=O)CO | n |

Consider the compound CC(=O)c1c(C(=O)C(C)(C)C)oc2nc(-c3ccc(-c4c[nH]nc4C)cc3Cl)c(-c3ccc(Cl)cc3)cc12 . Is its % GABA Example strictly less than 20%?
y

Consider the compound Cc1n[nH]cc1-c1ccc(-c2nc3oc(C(=O)C(C)(C)C)c(C)c3cc2-c2ccc(Cl)cc2)c(Cl)c1 . Is its % GABA Example strictly less than 20%?
y

---

System: human GABA α1β3β2 receptors
MEASUREMENT NOTES: GABAa, 3H-muscimol binding assay
STATED CONDITIONS: parent compound without R^4 heteroaryl; activity at 10 μM as percentage of activity of control compound P18 at 10 μM
Protocol: Membranes from recombinant Ltk cells expressing human GABA α1β3β2 receptors were suspended in an ice-cold solution of 100 mM KCl, 10 mM KH2PO4, adjusted to pH=7.4 with 1 M KOH. […] The filter plates were dried and counted in a Wallac MicroBeta® Trilux detector (Model 1450-030; PerkinElmer, Wellesley, Mass.), and the data were downloaded and analyzed using Prism 3.0. […] The tested compound's activity at 10 μM was expressed as a percentage of compound P18's activity at 10 μM. […]
Hi! Just check whether % GABA Parent is below 50%. Below gives YES, equal or above gives NO.

Consider the compound CC(C)(C)C(=O)c1oc2nc(-c3ccccc3Cl)c(-c3ccc(Cl)cc3)cc2c1N [Example P5, reference compound] . Is its % GABA Parent strictly less than 50%?
YES

Consider the compound CC(=O)Nc1c(C(=O)C(C)(C)C)oc2nc(-c3ccccc3Cl)c(-c3ccc(Cl)cc3)cc12 [Example P3, reference compound] . Is its % GABA Parent strictly less than 50%?
NO

Consider the compound CCC(=O)c1oc2nc(-c3ccccc3Cl)c(-c3ccc(Cl)cc3)cc2c1NC(C)=O [Example P4, reference compound] . Is its % GABA Parent strictly less than 50%?
NO

Consider the compound CC(C)(C)C(=O)c1oc2nc(-c3ccccc3Cl)c(-c3ccc(Cl)cc3)cc2c1C(N)=O [Example P12, reference compound] . Is its % GABA Parent strictly less than 50%?
YES

Consider the compound C[C@H](O)C(=O)Nc1c(C(=O)C(C)(C)C)oc2nc(-c3ccccc3Cl)c(-c3ccc(Cl)cc3)cc12 [Example P11, reference compound] . Is its % GABA Parent strictly less than 50%?
NO

Consider the compound CC(C)(O)C(=O)c1oc2nc(-c3ccccc3Cl)c(-c3ccc(Cl)cc3)cc2c1NC(=O)CO [Example P18, reference compound] . Is its % GABA Parent strictly less than 50%?
NO

Consider the compound CC(=O)c1c(C(=O)C(C)(C)C)oc2nc(-c3ccccc3Cl)c(-c3ccc(Cl)cc3)cc12 [Example P21, reference compound] . Is its % GABA Parent strictly less than 50%?
NO

Consider the compound CC(=O)Nc1c(C(=O)C(C)(C)O)oc2nc(-c3ccccc3Cl)c(-c3ccc(Cl)cc3)cc12 [Example P1, reference compound] . Is its % GABA Parent strictly less than 50%?
NO

---

Tested on: human GABA α1β3β2 receptors
MEASUREMENT NOTES: GABAa, 3H-muscimol binding assay
STATED CONDITIONS: activity at 10 μM as percentage of activity of control compound P18 at 10 μM (increase of 3H-muscimol binding)
Experimental: Membranes from recombinant Ltk cells expressing human GABA α1β3β2 receptors were suspended in an ice-cold solution of 100 mM KCl, 10 mM KH2PO4, adjusted to pH=7.4 with 1 M KOH. […] The filter plates were dried and counted in a Wallac MicroBeta® Trilux detector (Model 1450-030; PerkinElmer, Wellesley, Mass.), and the data were downloaded and analyzed using Prism 3.0. […] The tested compound's activity at 10 μM was expressed as a percentage of compound P18's activity at 10 μM. […]
OBSERVATION TYPE: % GABA Example
A bare number is not enough; add the unit after it.

Reference set, count: 3
| SMILES | TEST SYSTEM | OBSERVATION TYPE | RESULT |
| --- | --- | --- | --- |
| CC(C)(C)C(=O)c1oc2nc(-c3ccc(-c4ncon4)cc3Cl)c(-c3ccc(Cl)cc3)cc2c1NC(=O)CO | human GABA α1β3β2 receptors | % GABA Example | 41% |
| CCC(=O)c1oc2nc(-c3ccc(-c4cn[nH]c4)cc3Cl)c(-c3ccc(Cl)cc3)cc2c1NC(C)=O | human GABA α1β3β2 receptors | % GABA Example | 11% |
| CC(=O)Nc1c(C(=O)C(C)C)oc2nc(-c3ccc(-c4c[nH]nc4C)cc3Cl)c(-c3ccc(Cl)cc3)cc12 | human GABA α1β3β2 receptors | % GABA Example | 34% |

For the compound shown here, CCC(=O)c1oc2nc(-c3ccc(-c4cn[nH]c4)cc3Cl)c(-c3ccc(Cl)cc3)cc2c1N , give the reported % GABA Example.
26%

---

TEST SYSTEM: recombinant human CB1 receptor (Homo sapiens)
Construct: expressed in transfected cells
Sequence (P21554 whole entry): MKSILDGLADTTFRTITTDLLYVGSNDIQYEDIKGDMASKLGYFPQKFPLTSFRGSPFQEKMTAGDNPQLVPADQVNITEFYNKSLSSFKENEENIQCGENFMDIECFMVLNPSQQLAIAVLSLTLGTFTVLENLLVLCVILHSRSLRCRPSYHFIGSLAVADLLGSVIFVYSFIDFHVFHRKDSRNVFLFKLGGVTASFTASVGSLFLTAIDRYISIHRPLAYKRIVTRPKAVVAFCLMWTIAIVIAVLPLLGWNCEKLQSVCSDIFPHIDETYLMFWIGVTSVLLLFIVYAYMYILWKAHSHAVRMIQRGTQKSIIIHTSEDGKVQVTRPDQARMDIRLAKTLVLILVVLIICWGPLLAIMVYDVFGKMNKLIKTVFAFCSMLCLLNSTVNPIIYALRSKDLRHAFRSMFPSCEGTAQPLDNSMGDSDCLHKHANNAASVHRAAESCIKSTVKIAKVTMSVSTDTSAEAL
MEASUREMENT NOTES: Cannabinoid Receptor-1 (CB1) Binding Assay ([3H]CP-55940 displacement)
STATED CONDITIONS: recombinant human CB1 receptor expressed in CHO cells, 0.6 nM [3H]CP-55940; read-out: CB1 binding IC50
pIC50: −log10 of the molar value.
pIC50 below 9 gives 0 (no); pIC50 at or above it gives 1 (yes).

Worked examples follow.
| COMPOUND | TEST SYSTEM | QUALITATIVE LABEL |
| --- | --- | --- |
| CC(=O)Nc1c(C(=O)C(C)C)oc2nc(-c3ccc(-c4cc[nH]n4)cc3Cl)c(-c3ccc(Cl)cc3)cc12 [Example 2] | recombinant human CB1 receptor (Homo sapiens) | 0 (no) |
| CC(=O)Nc1c(C(=O)C(C)(C)O)oc2nc(-c3ccc(-c4c[nH]nc4C)cc3Cl)c(-c3ccc(Cl)cc3)cc12 [Example 41] | recombinant human CB1 receptor (Homo sapiens) | 0 (no) |
| CC(C)(C)C(=O)c1oc2nc(-c3ccc(-c4ncon4)cc3Cl)c(-c3ccc(Cl)cc3)cc2c1NC(=O)CO [Example 43] | recombinant human CB1 receptor (Homo sapiens) | 1 (yes) |
| CC(=O)Nc1c(C(=O)C(C)(C)O)oc2nc(-c3ccc(-c4cn[nH]c4)cc3Cl)c(-c3ccc(Cl)cc3)cc12 [Example 1] | recombinant human CB1 receptor (Homo sapiens) | 0 (no) |

Attention now shifts to the item below.
Is pIC50 for CC(=O)c1c(C(=O)C(C)C)oc2nc(-c3ccc(-c4c[nH]nc4C)cc3Cl)c(-c3ccc(Cl)cc3)cc12 [Example 38] at or above 9?
0 (no)
